B1: RHOBTB3 (parent)
chain: GGADIIVIKYNVNDKFSFHEVKDN

# Variants of: B1
# ASSAY_EXPLANATION: protein stability index of a GFP-peptide fusion (GPS, HEK-293T) (PSI 1-6); higher = more stable;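 note: lentivirally expressed fusions sorted by FACS into six bins by GFP to DsRed ratio, PSI derived from sequencing read proportions per bin multiplied by bin number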
# ASSAY_CONTEXT: c terminus: a fixed tail appended
Listed here: items and their measured protein stability index.
MEASURED_ENDPOINT: protein stability index

variant_code=F16L assay_result=1.63
variant_code=V12P assay_result=2.13
variant_code=G2K assay_result=2.86
variant_code=V7R assay_result=1.67
variant_code=G1W assay_result=1.54
variant_code=I5S assay_result=3.31
variant_code=K9C assay_result=2.65
variant_code=V21Q assay_result=2.29
variant_code=K15E assay_result=2.03
variant_code=K9M assay_result=3.15
variant_code=G1E assay_result=2.13
variant_code=N11I assay_result=2.24
variant_code=D23E assay_result=2.68
variant_code=V21W assay_result=2.15
variant_code=V7Y assay_result=2.29
variant_code=D14G assay_result=1.72
variant_code=N11E assay_result=1.76
variant_code=H19I assay_result=1.54
variant_code=I8M assay_result=1.89
variant_code=I6E assay_result=3.74
variant_code=K15W assay_result=3.18
variant_code=V7S assay_result=2.17
variant_code=S17I assay_result=2.65
variant_code=F16G assay_result=2.74
variant_code=D14E assay_result=2.8
variant_code=I8N assay_result=4.41
variant_code=H19E assay_result=2.5
variant_code=S17T assay_result=2.25
variant_code=K15F assay_result=2.8
variant_code=S17N assay_result=3.14
variant_code=I5R assay_result=2.34
variant_code=V21T assay_result=1.46
variant_code=K15Q assay_result=2.13
variant_code=K9F assay_result=3.82
variant_code=I8S assay_result=3.71
variant_code=D14H assay_result=2.94
variant_code=V21N assay_result=1.66
variant_code=I5T assay_result=2.47
variant_code=N11H assay_result=3.1
variant_code=V21I assay_result=2.23
variant_code=K22M assay_result=2.35
variant_code=V12Y assay_result=2.38
variant_code=A3P assay_result=2.35
variant_code=I6F assay_result=1.5
variant_code=A3D assay_result=2.85
variant_code=I8L assay_result=1.47
